Test system: collagen-induced arthritis
measurement-notes: Mouse collagen-induced arthritis (CIA) animal model
Type: in vivo
condition-set: DBA/1 mice CIA model, dose 4.0 mg/kg, subcutaneous from day 30, n=10; highest score 16
Peptide text beside a SMILES is read from it. * marks the point of attachment. X65 = O=C1C=CC(=O)N1c1cccc(CCCCCCCCCCCCC(=O)*)c1; X74 = O=C1C=CC(=O)N1c1cccc(CCCCCCCCCCC(=O)*)c1; X64 = O=C1C=CC(=O)N1c1cccc(CCCCCCCCCC(=O)*)c1; X72 = O=C1C=CC(=O)N1c1ccccc1CCCCCCCCCCC(=O)*; X54 = O=C1C=CC(=O)N1c1cccc(CCCCCCC(=O)*)c1; X52 = O=C1C=CC(=O)N1c1ccccc1CCCCCCCC(=O)*; X71 = O=C1C=CC(=O)N1c1cccc(CCCCCC(=O)*)c1; X46 = O=C1C=CC(=O)N1c1cccc(CCCCC(=O)*)c1; X63 = O=C1C=CC(=O)N1c1ccccc1CCCCCCC(=O)*; X79 = O=C1C=CC(=O)N1c1cccc(CCC(=O)*)c1; X75 = O=C1C=CC(=O)N1c1cccc(CC(=O)*)c1
property-measured: Clinical score
Numbers only.

# compound, result
measured = [
    ("C[C@H](NC(=O)CNC(=O)[C@H](CCCNC(=N)N)NC(=O)CCCCCCCCCCc1ccccc1N1C(=O)C=CC1=O)C(=O)N[C@@H](CC(=O)O)C(=O)N[C@@H](CCCNC(=N)N)C(=O)N[C@@H](C)C(=O)NCC(=O)NCC(=O)NCC(=O)NCC(=O)N[C@@H](CCCNC(=N)N)C(=O)NCC(=O)N[C@@H](CC(=O)O)C(=O)O [X22] (X72-RGADRAGGGGRGD-OH)", 8.67),
    ("C[C@H](NC(=O)CNC(=O)[C@H](CCCNC(=N)N)NC(=O)CCCCCCCCCCCCc1cccc(N2C(=O)C=CC2=O)c1)C(=O)N[C@@H](CC(=O)O)C(=O)N[C@@H](CCCNC(=N)N)C(=O)N[C@@H](C)C(=O)NCC(=O)NCC(=O)NCC(=O)NCC(=O)N[C@@H](CCCNC(=N)N)C(=O)NCC(=O)N[C@@H](CC(=O)O)C(=O)O [X36] (X65-RGADRAGGGGRGD-OH)", 8.86),
    ("C[C@H](NC(=O)CNC(=O)[C@H](CCCNC(=N)N)NC(=O)Cc1cccc(N2C(=O)C=CC2=O)c1)C(=O)N[C@@H](CC(=O)O)C(=O)N[C@@H](CCCNC(=N)N)C(=O)N[C@@H](C)C(=O)NCC(=O)NCC(=O)NCC(=O)NCC(=O)N[C@@H](CCCNC(=N)N)C(=O)NCC(=O)N[C@@H](CC(=O)O)C(=O)O [X25] (X75-RGADRAGGGGRGD-OH)", 9.21),
    ("C[C@H](NC(=O)CNC(=O)[C@H](CCCNC(=N)N)NC(=O)CCCCCCCc1ccccc1N1C(=O)C=CC1=O)C(=O)N[C@@H](CC(=O)O)C(=O)N[C@@H](CCCNC(=N)N)C(=O)N[C@@H](C)C(=O)NCC(=O)NCC(=O)NCC(=O)NCC(=O)N[C@@H](CCCNC(=N)N)C(=O)NCC(=O)N[C@@H](CC(=O)O)C(=O)O [X19] (X52-RGADRAGGGGRGD-OH)", 8.72),
    ("C[C@H](NC(=O)CNC(=O)[C@H](CCCNC(=N)N)NC(=O)CCCCCCc1cccc(N2C(=O)C=CC2=O)c1)C(=O)N[C@@H](CC(=O)O)C(=O)N[C@@H](CCCNC(=N)N)C(=O)N[C@@H](C)C(=O)NCC(=O)NCC(=O)NCC(=O)NCC(=O)N[C@@H](CCCNC(=N)N)C(=O)NCC(=O)N[C@@H](CC(=O)O)C(=O)O [X30] (X54-RGADRAGGGGRGD-OH)", 8.73),
    ("C[C@H](NC(=O)CNC(=O)[C@H](CCCNC(=N)N)NC(=O)CCCCCCc1ccccc1N1C(=O)C=CC1=O)C(=O)N[C@@H](CC(=O)O)C(=O)N[C@@H](CCCNC(=N)N)C(=O)N[C@@H](C)C(=O)NCC(=O)NCC(=O)NCC(=O)NCC(=O)N[C@@H](CCCNC(=N)N)C(=O)NCC(=O)N[C@@H](CC(=O)O)C(=O)O [X18] (X63-RGADRAGGGGRGD-OH)", 8.91),
]

I would be grateful if you could provide Clinical score for each of the following entries.
1. C[C@H](NC(=O)CNC(=O)[C@H](CCCNC(=N)N)NC(=O)CCCCCc1cccc(N2C(=O)C=CC2=O)c1)C(=O)N[C@@H](CC(=O)O)C(=O)N[C@@H](CCCNC(=N)N)C(=O)N[C@@H](C)C(=O)NCC(=O)NCC(=O)NCC(=O)NCC(=O)N[C@@H](CCCNC(=N)N)C(=O)NCC(=O)N[C@@H](CC(=O)O)C(=O)O [X29] (X71-RGADRAGGGGRGD-OH)
2. C[C@H](NC(=O)CNC(=O)[C@H](CCCNC(=N)N)NC(=O)CCCCCCCCCCc1cccc(N2C(=O)C=CC2=O)c1)C(=O)N[C@@H](CC(=O)O)C(=O)N[C@@H](CCCNC(=N)N)C(=O)N[C@@H](C)C(=O)NCC(=O)NCC(=O)NCC(=O)NCC(=O)N[C@@H](CCCNC(=N)N)C(=O)NCC(=O)N[C@@H](CC(=O)O)C(=O)O [X34] (X74-RGADRAGGGGRGD-OH)
3. C[C@H](NC(=O)CNC(=O)[C@H](CCCNC(=N)N)NC(=O)CCCCc1cccc(N2C(=O)C=CC2=O)c1)C(=O)N[C@@H](CC(=O)O)C(=O)N[C@@H](CCCNC(=N)N)C(=O)N[C@@H](C)C(=O)NCC(=O)NCC(=O)NCC(=O)NCC(=O)N[C@@H](CCCNC(=N)N)C(=O)NCC(=O)N[C@@H](CC(=O)O)C(=O)O [X28] (X46-RGADRAGGGGRGD-OH)
4. C[C@H](NC(=O)CNC(=O)[C@H](CCCNC(=N)N)NC(=O)CCc1cccc(N2C(=O)C=CC2=O)c1)C(=O)N[C@@H](CC(=O)O)C(=O)N[C@@H](CCCNC(=N)N)C(=O)N[C@@H](C)C(=O)NCC(=O)NCC(=O)NCC(=O)NCC(=O)N[C@@H](CCCNC(=N)N)C(=O)NCC(=O)N[C@@H](CC(=O)O)C(=O)O [X26] (X79-RGADRAGGGGRGD-OH)
5. C[C@H](NC(=O)CNC(=O)[C@H](CCCNC(=N)N)NC(=O)CCCCCCCCCc1cccc(N2C(=O)C=CC2=O)c1)C(=O)N[C@@H](CC(=O)O)C(=O)N[C@@H](CCCNC(=N)N)C(=O)N[C@@H](C)C(=O)NCC(=O)NCC(=O)NCC(=O)NCC(=O)N[C@@H](CCCNC(=N)N)C(=O)NCC(=O)N[C@@H](CC(=O)O)C(=O)O [X33] (X64-RGADRAGGGGRGD-OH)

1: 8.98; 2: 8.8; 3: 8.83; 4: 9.07; 5: 9.08
